Target: human recombinant ATX (Homo sapiens, UniProt Q13822)
Test: Autotaxin (ATX) activity Quanta Red assay
Type: biochemical
Details: read-out: Activity (ATX activity, Quanta Red assay; IC50)
pIC50: −log10 of the molar value.
measurement name: pIC50

Prompt: # pIC50 lookup, item `Cc1cnc2c(c1)nc(CCC(=O)N[C@@H](C)c1ccc(N3CCCNCC3)cc1)n2Cc1ccc(OC(F)(F)F)cc1`
Completion: 7.60

Prompt: Moving on to the next compound: `COc1ccc([C@H](C)NC(=O)NCc2nc3cccnc3n2Cc2ccc(F)cc2)cc1`
Completion: 7.38

Prompt: Param item: `O=C(CCc1nc2cccnc2n1Cc1ccc(OC(F)(F)F)cc1)NCC1CCOCC1`
Completion: 6.90

1 = C[C@H](NC(=O)CCc1nc2cccnc2n1Cc1ccc(OC(F)(F)F)cc1)C1CC1
2 = O=C(CCc1nc2cccnc2n1Cc1ccc(OC(F)(F)F)cc1)N[C@H]1CCc2ccccc21
Prompt: Rank 1 against 2 by their pIC50 values and give the higher one. # reply format: chosen label
Completion: 2

###

Target: human recombinant ATX (Homo sapiens, UniProt Q13822)
Experiment: Autotaxin (ATX) activity Quanta Red assay
Format: biochemical
Conditions: read-out: Activity (ATX activity, Quanta Red assay; IC50)
pIC50: −log10 of the molar value.
measurement name: pIC50

Record excerpt, results attached:
Prompt: // lookup pIC50 for C[C@@H]1CN(c2ccc([C@H](C)NC(=O)CCc3nc4cccnc4n3Cc3ccc(F)c(F)c3)cc2)CCN1 [Example 188]
Completion: 7.82

Prompt: Cool, now C[C@H](NC(=O)CCc1nc2cccnc2n1Cc1ccc(F)c(F)c1)c1ccc(N2CCOCC2)cc1 [Example 45]
Completion: 7.77

Prompt: Follow-up item: O=C(CCc1nc2cccnc2n1Cc1ccc(OC(F)(F)F)cc1)Nc1ncco1 [Example 78]
Completion: 6.10

Prompt: Input CC[C@H](NC(=O)CCc1nc2cccnc2n1Cc1ccc(OC)cc1)c1ccccc1 [Example 93]
Completion: 7.82

Prompt: Check O=C(CCc1nc2cccnc2n1Cc1ccc(F)c(F)c1)NC(CO)c1ccc(Cl)cc1 (centres unmarked) [Example 35] too.
Completion: 8.15

Prompt: Also check C[C@H](NC(=O)CCc1nc2cccnc2n1Cc1ccc(F)c(F)c1)c1ccc(N2CCN(C)CC2)cc1 [Example 182]
Completion: 8.10

I = O=C(CCc1nc2cccnc2n1Cc1ccc(F)cc1)NC(CO)c1ccc(OC(F)(F)F)cc1 (centres unmarked) [Example 33]
II = O=C(CSc1nc2cccnc2n1Cc1ccc(F)cc1)N[C@@H](CO)c1ccccc1 [Example 143]
Prompt: // max by pIC50 over [ I , II ] Label of pick, please.
Completion: II

###

Target: human recombinant ATX (Homo sapiens, UniProt Q13822)
Assay: Autotaxin (ATX) activity Quanta Red assay
Assay type: biochemical
Details: read-out: Activity (ATX activity, Quanta Red assay; IC50)
pIC50: −log10 of the molar value.
measurement name: pIC50

A = O=C(CCc1nc2cccnc2n1Cc1ccc(OC(F)(F)F)cc1)N[C@H](CO)Cc1ccccc1 [Example 204]
B = O=C(CCc1nc2cccnc2n1Cc1ccc(F)c(F)c1)N[C@@H]1c2ccccc2C[C@@H]1O [Example 46]
C = COc1ccc(Cn2c(CCC(=O)NC(C)C)nc3cccnc32)cc1 [Example 113]
D = O=C(CCc1nc2cccnc2n1Cc1ccc(F)c(F)c1)N[C@H]1CCc2ccccc21 [Example 55]
Prompt: Rank the compounds listed above in increasing order of pIC50. Answer by listing the labels in the order asked for.
Completion: C, A, D, B
(C: 5.82, A: 7.05, D: 7.40, B: 7.74)
